Collected from the literature: pIC50 of various compounds toward MALT1 (Homo sapiens, UniProt Q9UDY8).
Expect pIC50 as a plain number equal to -log10 of the molar concentration.

Completed entries (count: 3):
1) O=C(Nc1cc(Cl)c(-n2nccn2)cc1F)c1cnn(-c2cccc3nnsc23)c1C(F)(F)F :: 6.85
2) COc1ncc(NC(=O)c2cnn(-c3cncc4ccccc34)c2C(F)(F)F)cc1C#N :: 7.13
3) N#Cc1cc(NC(=O)c2cnn(-c3ccnc4c3OCO4)c2C(F)(F)F)cnc1-n1nccn1 :: 7.13

Request the reported pIC50 associated with COc1ncc(NC(=O)Nc2cnc(C)c(Br)c2[C@H](C)OC)cc1C#N
7.10

* * *

Collected from the literature: IC50 of various compounds toward MALT1 (Homo sapiens, UniProt Q9UDY8).

Completed entries (count: 3):
1. Cn1nc(-c2cc(Cl)cc3nccn23)c(C(F)(F)F)c1C(=O)Nc1ccnc(C(F)(F)F)c1 :: 500 to 2500 nM
2. CNC(=O)[C@H]1CC[C@H](C(=O)N(C)[C@@H](c2ccc(Nc3cnc4nc(Cl)nn4c3[C@H](C)OC)cc2)C(F)(F)F)CC1 :: 100 to 1000 nM
3. Cn1nc(OCc2ccccc2)c(C(F)(F)F)c1C(=O)Nc1ccnc(C(F)(F)F)c1 :: 500 to 2500 nM

Request the reported IC50 associated with O=C(Nc1ccnc(C(F)(F)F)c1)c1snc(-c2ccn3ccnc3c2)c1C1CC1
1000 to 2500 nM

* * *

pIC50: −log10 of the molar value.
Collected from the literature: pIC50 of various compounds toward MALT1 (Homo sapiens, UniProt Q9UDY8).

1) CC(=O)Nc1cc(-c2nn(C)c(C(=O)Nc3ccnc(C(F)(F)F)c3)c2C(F)(F)F)ccn1 :: < 5.00
2) Cc1nc2c(C3CC3)c(NC(=O)Nc3cnc(OC(C)C)c(Cl)c3)cnc2s1 :: 7.00 to 7.29
3) CCOc1ncc(NC(=O)Nc2cnc3sc(C)nc3c2C2CC2)cc1Cl :: 7.30 to 9.00
4) CN(C)CCn1nc(-c2ccccc2)c(C(F)(F)F)c1C(=O)Nc1cnc(-n2nccn2)c(C#N)c1 :: 5.00 to 5.60
5) N#Cc1cc(NC(=O)c2snc(-c3cccc4ncsc34)c2C2CC2)cnc1-n1nccn1 :: ≥ 6.40
6) CO[C@@H](C)c1c(Nc2ccc([C@H](N(C)C(=O)C3CCC3)C(F)(F)F)c(C)c2)cnc2nc(Cl)nn12 :: < 6.00
7) CN(C(=O)C1CCS(=O)(=O)CC1)[C@@H](c1ccc(Nc2cnn(CC(C)(C)C)c2C(F)(F)F)cc1)C(F)(F)F :: < 6.00
8) CN(C)c1ncc(NC(=O)c2snc(-c3ccccc3)c2C2CC2)cc1C#N :: ≥ 6.40

Request the reported pIC50 associated with O=C(Nc1ccnc(C(F)(F)F)c1)c1snc(-c2ccc3scnc3c2)c1C1CC1
≥ 6.40
